- TARGET OF ASSAY: α4β2 nicotinic acetylcholine receptor (Rattus norvegicus, UniProt P09483+P12390)
- Construct: from tissue; host or cells: rat cerebral cortex membranes
- Sequence (P09483 31-630): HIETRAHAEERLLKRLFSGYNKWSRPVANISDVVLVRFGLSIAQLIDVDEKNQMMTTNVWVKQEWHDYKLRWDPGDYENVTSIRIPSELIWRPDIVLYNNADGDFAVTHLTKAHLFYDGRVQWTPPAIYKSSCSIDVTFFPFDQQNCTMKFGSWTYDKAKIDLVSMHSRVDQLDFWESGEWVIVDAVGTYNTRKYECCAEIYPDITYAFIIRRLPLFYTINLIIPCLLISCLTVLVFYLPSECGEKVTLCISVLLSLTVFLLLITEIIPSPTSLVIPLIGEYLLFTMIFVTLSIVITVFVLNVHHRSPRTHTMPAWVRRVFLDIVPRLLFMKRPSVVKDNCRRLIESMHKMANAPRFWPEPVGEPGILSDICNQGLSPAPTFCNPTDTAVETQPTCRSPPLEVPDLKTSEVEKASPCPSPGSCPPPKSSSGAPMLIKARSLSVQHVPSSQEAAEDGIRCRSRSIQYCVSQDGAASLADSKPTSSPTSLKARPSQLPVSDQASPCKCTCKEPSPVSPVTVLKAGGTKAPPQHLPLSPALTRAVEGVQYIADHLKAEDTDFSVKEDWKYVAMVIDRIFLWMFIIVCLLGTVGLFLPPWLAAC
- Sequence (P12390 25-500): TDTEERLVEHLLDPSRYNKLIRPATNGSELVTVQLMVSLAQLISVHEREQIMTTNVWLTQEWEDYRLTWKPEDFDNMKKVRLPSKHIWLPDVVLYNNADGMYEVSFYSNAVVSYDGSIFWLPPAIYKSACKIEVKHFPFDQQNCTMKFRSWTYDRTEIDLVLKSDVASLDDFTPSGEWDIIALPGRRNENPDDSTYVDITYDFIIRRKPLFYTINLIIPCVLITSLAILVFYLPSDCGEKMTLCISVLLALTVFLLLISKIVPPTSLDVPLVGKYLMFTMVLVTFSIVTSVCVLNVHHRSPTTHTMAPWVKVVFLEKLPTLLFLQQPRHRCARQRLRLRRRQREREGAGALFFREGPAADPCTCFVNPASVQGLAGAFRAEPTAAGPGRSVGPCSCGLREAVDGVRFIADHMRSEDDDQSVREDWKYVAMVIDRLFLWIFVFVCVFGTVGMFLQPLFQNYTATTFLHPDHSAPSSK
- PROTOCOL DESCRIPTION: [3H]-N-methylcarbamyl choline (3H-MCC) displacement, rat cerebral cortex membranes
- Type: binding
- REPORTED CONDITIONS: read-out: α4β2 Ki
REPORTED ENDPOINT: pKi
Give bare numbers, as −log10 of the molar value.

Solved cases below.
INSERT INTO measurements (compound, reported_endpoint, measurement) VALUES
  ('Cc1ccc(C=C2CCCN=C2c2cccnc2)cc1', 'pKi', 5.70),
  ('CN(C)c1ccc(C=CC=C2CCCN=C2c2cccnc2)cc1', 'pKi', 6.40),
  ('Oc1ccc(C=C2CCCN=C2c2cccnc2)c(O)c1 [GTS-52, 3-(2,4-Dihydroxybenzylidene)anabaseine]', 'pKi', 6.35),
  ('CCCCCOc1ccc(C=C2CCCN=C2c2cccnc2)c(OCCCCC)c1', 'pKi', 5.60),
  ('C(=C1CCCN=C1c1cccnc1)c1ccoc1', 'pKi', 6.07),
  ('Nc1ccc(C=C2CCCN=C2c2cccnc2)cc1', 'pKi', 6.77);

// below: pKi requested for another compound
*Q* What value of measured pKi is listed for C(=Cc1ccco1)C=C1CCCN=C1c1cccnc1 ?
*A* 6.10
